# Test system: RAW264.7
# Test Method Notes: Antiinflammatory activity in mouse RAW264.7 cells assessed as inhibition of LPS-induced nitric oxide production preincubated for 2 hrs followed by LPS challenge measured after 24 hrs
# Type: functional, cell-based
Recorded Endpoint: IC50 (µM)

# Compound, IC50 [µM]
measured = [
    ("C/C=C/C(=O)O[C@H]1C(C)(C)[C@H](CC(=O)OC)[C@]2(C)C(=O)[C@@]1(O)[C@H]1O[C@]13[C@@H]1CC(=O)O[C@@H](c4ccoc4)[C@]1(C)CC[C@H]23", 3.33),
]

I. C/C=C/C(=O)O[C@H]1C(C)(C)[C@H](C(O)C(=O)OC)[C@]2(C)C(=O)[C@@]1(O)[C@H]1O[C@@]13C2=CC[C@]1(C)[C@H]3CC(=O)O[C@H]1c1ccoc1 (some centres undefined) [TRICHINENLIDE C]
II. C/C=C/C(=O)O[C@H]1C(C)(C)[C@H](CC(=O)OC)[C@]2(C)C(=O)[C@@]1(O)[C@H]1O[C@@]13C2=CC[C@]1(C)[C@H]3CC(=O)O[C@H]1c1ccoc1 [TRICHINENLIDE B]
III. COc1cc(/C=C/C(=O)CC(=O)/C=C/c2ccc(O)c(OC)c2)ccc1O
Query :: Falling order of IC50, please. Answer by naming the labels in the order asked.
Result :: III, II, I

Provenance of the data: ChEMBL document CHEMBL2429749
